Biological target: Corticotropin-releasing factor receptor 2/Corticotropin-releasing factor-binding protein (Homo sapiens, UniProt P24387+Q13324)
Sequence (Q13324 whole entry): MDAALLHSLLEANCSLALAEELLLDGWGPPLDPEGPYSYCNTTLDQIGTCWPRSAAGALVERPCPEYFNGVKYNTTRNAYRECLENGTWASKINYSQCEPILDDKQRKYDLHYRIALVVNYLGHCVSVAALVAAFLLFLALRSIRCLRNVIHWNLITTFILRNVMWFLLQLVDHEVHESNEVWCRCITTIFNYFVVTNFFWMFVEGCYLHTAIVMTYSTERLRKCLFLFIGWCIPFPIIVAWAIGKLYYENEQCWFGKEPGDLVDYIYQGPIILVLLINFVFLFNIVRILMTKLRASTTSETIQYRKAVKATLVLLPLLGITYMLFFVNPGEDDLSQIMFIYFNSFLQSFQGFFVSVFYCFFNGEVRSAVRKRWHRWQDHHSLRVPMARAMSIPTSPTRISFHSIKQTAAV
Sequence (P24387 whole entry): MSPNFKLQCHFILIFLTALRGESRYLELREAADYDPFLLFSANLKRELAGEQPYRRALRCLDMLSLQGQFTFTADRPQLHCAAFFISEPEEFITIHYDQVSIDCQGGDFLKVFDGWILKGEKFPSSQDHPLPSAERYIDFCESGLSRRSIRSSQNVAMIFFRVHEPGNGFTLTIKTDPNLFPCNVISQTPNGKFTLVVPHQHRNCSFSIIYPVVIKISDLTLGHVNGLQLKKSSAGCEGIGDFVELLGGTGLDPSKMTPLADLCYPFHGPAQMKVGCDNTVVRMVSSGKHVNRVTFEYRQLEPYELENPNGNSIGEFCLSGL
Assay: Dose Response confirmation of uHTS hits for small molecule antagonists of the CRF-binding protein and CRF-R2 receptor complex.
Type: functional
Conditions: read-out: IC50_Mean
Activity calls are given as the source filed them.
Outcomes: YES (active), NO (inactive)

>>> print(df.to_string())
                                    compound  class_assignment
 0  COc1ccc(-c2ccc3oc(-c4ccc(OC)cc4)c(C#CCO)c3c2)cc1                NO
 1  O=C1CC(c2cccc(F)c2)SC(N(c2ccccc2)c2ccccc2)=N1 (stereo not drawn)               YES
 2  CCO[C@@H]1OC(C(N)=O)=C[C@H](C(C)(C)C)[C@H]1CCCO                NO
 3  COc1ccc(Cn2c(-c3ccco3)nc3c(c(=O)c4ccccc4n3C)c2=O)cc1                NO
 4  Cc1cc(C)cc(NC(=O)Cn2nnc(C(=O)NCc3ccc(F)cc3)c2N)c1                NO
 5  CCCNC(=O)C1CC(=O)N(c2ccc(OCC)cc2)C1 (stereo not drawn)                NO
 6  Cc1ccc(OC(=O)N(C)C[C@@H]2OCc3cnnn3CCCC(=O)N([C@@H](C)CO)C[C@@H]2C)cc1               YES
 7        Cc1cccc(N2C(N)=NC(N)=NC23CCCCC3)c1                NO
 8  CC[C@]12c3[nH]c4ccc(OC)cc4c3CCN1C(=O)C(CC(=O)NCCCOC)C[C@@H]2C(=O)N1CCN(C(=O)c2ccco2)CC1 (stereo partly drawn)                NO
 9  COc1ccc(C(C(=O)NC2CCCCC2)N(C(=O)c2sc(C)nc2C)c2ccc(OC)cc2)cc1 (stereo not drawn)               YES
10                  COc1cc(C(=O)O)c2ccccc2n1               YES
11  CCCCOc1ccccc1C1C(C(=O)OC)=CN(CC)C=C1C(=O)OC               YES
12  Cc1c(-c2ccc(Cl)cc2)[n+]([O-])c(-c2ccccc2)c[n+]1[O-]                NO

###

Target: Sentrin-specific protease 8 (Homo sapiens, UniProt Q96LD8)
Sequence (Q96LD8 whole entry): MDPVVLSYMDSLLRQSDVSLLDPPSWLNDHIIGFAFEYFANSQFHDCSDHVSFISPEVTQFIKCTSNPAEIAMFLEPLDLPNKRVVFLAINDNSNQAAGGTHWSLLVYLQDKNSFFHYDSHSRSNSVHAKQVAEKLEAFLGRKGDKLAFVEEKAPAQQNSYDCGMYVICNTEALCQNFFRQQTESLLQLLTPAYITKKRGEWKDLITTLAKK
Format: functional
Activity calls are given as the source filed them.
Outcomes: active, inactive

In [3]: df
Out[3]:
                                   compound  class_assignment
0          COc1ccc(NC(=S)Nc2ccc3nsnc3c2)cc1            active
1  Cc1cc(C)n(C(CC(=O)N2CCc3ccccc3C2)C(=O)O)n1 (stereo unspecified)          inactive
2            O=C1Cc2ccccc2C(=O)N1CCc1ccccc1            active
3  O=C(NC1CCCCC1)C(c1ccnc2ccccc12)N1CCc2ccccc2C1 (stereo unspecified)            active
4  O=[N+]([O-])c1ccc(/C=N/c2ccc(Cl)c([N+](=O)[O-])c2)s1            active
5  O=C1/C(=C/NCCc2ccccc2)c2ccccc2C(=O)N1Cc1ccccc1            active

###

Target: High affinity choline transporter 1 (Homo sapiens, UniProt Q9GZV3)
Sequence (Q9GZV3 whole entry): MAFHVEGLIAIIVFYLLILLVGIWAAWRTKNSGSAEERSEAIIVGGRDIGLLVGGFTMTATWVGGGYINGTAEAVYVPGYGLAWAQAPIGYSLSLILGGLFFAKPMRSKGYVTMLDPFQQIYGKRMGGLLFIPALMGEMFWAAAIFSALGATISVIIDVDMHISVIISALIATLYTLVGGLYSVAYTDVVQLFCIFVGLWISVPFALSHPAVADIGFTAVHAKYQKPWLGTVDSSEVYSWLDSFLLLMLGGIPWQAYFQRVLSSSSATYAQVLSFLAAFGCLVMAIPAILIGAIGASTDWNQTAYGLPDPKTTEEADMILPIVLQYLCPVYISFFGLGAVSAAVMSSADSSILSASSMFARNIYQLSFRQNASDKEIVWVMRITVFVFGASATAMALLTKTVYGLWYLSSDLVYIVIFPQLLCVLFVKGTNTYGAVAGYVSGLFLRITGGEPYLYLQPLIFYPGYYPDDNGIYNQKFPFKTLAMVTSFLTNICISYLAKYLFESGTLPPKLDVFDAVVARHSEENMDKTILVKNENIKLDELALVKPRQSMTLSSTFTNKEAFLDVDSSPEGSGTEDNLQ
Assay: human choline transporter blockers, potency – cell-based, 10-point CRC, membrane potential dye, dose response (AID 588401);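 note: membrane potential dye fluorescence of choline-evoked depolarization via CHT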
Assay type: functional
Active and inactive are the calls of the source.
PROPERTY MEASURED: IC50

>>> print(df.to_string())
                                   molecule    endpoint_value
0  NC(=O)CCCn1c(C(=O)c2cc(Cl)c(N)c(Cl)c2)c2ccc(C(F)(F)F)cc2[n+]1[O-]  4.22 µM (active)
1  CC1CCC(NC(=O)c2cccc(S(=O)(=O)NCc3ccccc3)c2)CC1 (centres undefined)  3.64 µM (active)
2                       CCNc1cc(Cl)nc(SC)n1  1.79 µM (active)
3  CNC(=O)[C@H]1O[C@@H](n2cnc3c(NCc4cccc(I)c4)ncnc32)[C@H](O)[C@@H]1O  1.83 µM (active)

###

Biological target: Heat shock factor protein 1 (Mus musculus)
Sequence (P38532 whole entry): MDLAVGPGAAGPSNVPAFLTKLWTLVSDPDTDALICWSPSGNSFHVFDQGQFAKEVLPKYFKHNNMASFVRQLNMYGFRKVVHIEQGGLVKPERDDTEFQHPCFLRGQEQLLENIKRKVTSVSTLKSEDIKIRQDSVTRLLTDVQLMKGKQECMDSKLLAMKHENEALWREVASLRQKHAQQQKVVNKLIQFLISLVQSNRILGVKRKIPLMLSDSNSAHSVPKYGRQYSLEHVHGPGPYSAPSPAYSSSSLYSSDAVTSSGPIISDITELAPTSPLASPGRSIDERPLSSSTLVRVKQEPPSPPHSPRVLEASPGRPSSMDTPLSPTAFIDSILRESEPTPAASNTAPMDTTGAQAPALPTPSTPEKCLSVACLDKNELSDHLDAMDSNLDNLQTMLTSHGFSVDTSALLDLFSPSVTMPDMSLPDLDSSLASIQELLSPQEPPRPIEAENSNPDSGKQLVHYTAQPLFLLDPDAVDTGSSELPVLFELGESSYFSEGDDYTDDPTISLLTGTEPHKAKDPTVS
Experiment: decrease of HSF1-responsive luciferase luminescence – cell-based, NIH3T3, dose retest, confirmation (AID 2382);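 note: NIH3T3 fibroblasts with HSF1-driven luciferase reporter stressed by proteasome inhibitor MG132; luminescence from HSF1-driven luciferase expression after 8 hours of MG132 stress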
Assay type: functional
Active and inactive are the calls of the source.
PROPERTY MEASURED: EC50

                                    compound  property_measured         endpoint_value
 0  C=CCOc1ccc(C(c2c(C)n(C)n(-c3ccccc3)c2=O)c2c(C)n(C)n(-c3ccccc3)c2=O)cc1               EC50  > 195 µM (not active)
 1                O=C(Nc1ccncc1)c1c(F)cccc1F               EC50       24.1 µM (active)
 2  CCc1ccc(OC(C)C(=O)N(Cc2ccco2)C2CCS(=O)(=O)C2)cc1 (configuration not stated)               EC50  > 195 µM (not active)
 3  C#Cc1ccc([C@@H]2C=C(C(=O)OCC=C)O[C@H](OCc3ccc(CO)cc3)C2)cc1               EC50  > 195 µM (not active)
 4  COc1ccc(/C=N/NC(=O)CN(C)S(=O)(=O)c2ccc(NC(C)=O)cc2)cc1               EC50  > 195 µM (not active)
 5         Cc1noc(C)c1CSc1ncnc2sc3c(c12)CCC3               EC50  > 195 µM (not active)
 6  O=C(Nc1ccc(S(=O)(=O)N2CCOCC2)cc1)c1ccc(Cl)cc1Cl               EC50  > 195 µM (not active)
 7  CCN1CCc2c(sc(NC(=O)c3cc4ccccc4cc3OC)c2C(N)=O)C1               EC50       40.7 µM (active)
 8  COc1cccc(NC(=O)Cn2c(=O)oc3cc(S(=O)(=O)N4CCCC4)ccc32)c1               EC50  > 195 µM (not active)
 9       Cn1c(C(=O)NN)cc2cc(OCc3ccccc3)ccc21               EC50  > 195 µM (not active)
10               CNC(=O)Cn1nc(C)c2ccccc2c1=O               EC50  > 195 µM (not active)
11  CC(C)(C)c1ccc2c(c1)OC(C(=O)N/N=C\c1ccc[nH]1)CO2 (configuration not stated)               EC50      0.436 µM (active)

Attribution: ChEMBL document CHEMBL1201862
